- Tested on: PAMPA
- Test Settings: Papp (x 10^-6 cm/s) – UV Detection / [row 3]; UV Detection
Attribute: Papp
Test Readout: Papp (×10⁻⁶ cm/s)

INSERT INTO measurements (compound, reported_value) VALUES
  ('CCCCC[C@@H]1OC(=O)[C@@H](C)N(C)C(=O)[C@H](CCCCC)OC(=O)[C@@H](C)N(C)C(=O)[C@H](CCCCC)OC(=O)[C@@H](C)N(C)C(=O)[C@H](CCCCC)OC(=O)[C@@H](C)N(C)C(=O)[C@H](CCCCC)OC(=O)[C@@H](C)N(C)C(=O)[C@H](CCCCC)OC(=O)[C@@H](C)N(C)C1=O', 1.95),
  ('CCCCC[C@@H]1OC(=O)[C@@H](C)N(C)C1=O', 12.7),
  ('CCCCC[C@@H]1OC(=O)[C@@H](C)N(C)C(=O)[C@H](CCCCC)OC(=O)[C@@H](C)N(C)C(=O)[C@H](CCCCC)OC(=O)[C@@H](C)N(C)C1=O [Compound C1.3, ent-verticilide B1]', 4.37),
  ('CCCCC[C@@H]1OC(=O)[C@@H](C)N(C)C(=O)[C@H](CCCCC)OC(=O)[C@@H](C)N(C)C(=O)[C@H](CCCCC)OC(=O)[C@@H](C)N(C)C(=O)[C@H](CCCCC)OC(=O)[C@@H](C)N(C)C1=O [Compound C1.4, ent-verticilide]', 6.48),
  ('CCCCC[C@@H]1OC(=O)[C@@H](C)N(C)C(=O)[C@H](CCCCC)OC(=O)[C@@H](C)N(C)C1=O', 5.16),
  ('CCCCC[C@@H]1OC(=O)[C@@H](C)N(C)C(=O)[C@H](CCCCC)OC(=O)[C@@H](C)N(C)C(=O)[C@H](CCCCC)OC(=O)[C@@H](C)N(C)C(=O)[C@H](CCCCC)OC(=O)[C@@H](C)N(C)C(=O)[C@H](CCCCC)OC(=O)[C@@H](C)N(C)C1=O', 3.08);
